- Test system: MDA-MB-435 human melanoma cells
- Procedure details: Cytotoxicity against MDA-MB-435 cells
- Assay type: cell-based
- Condition summary: MDA-MB-435, 72 h, read-out: IC50 value toward the MDA-MB-435 human melanoma cells
pIC50: −log10 of the molar value.
Property name: pIC50

INSERT INTO results (compound, value_reported) VALUES
  ('CO[C@H]1[C@H](O[C@H]2CC[C@]3(C=O)[C@H]4CC[C@]5(C)[C@@H]6CC[C@]5(O[C@H]5OC(=O)C[C@H]56)[C@@H]4CC[C@]3(O)C2)O[C@H](C)[C@H](O)[C@@H]1OC [Compound 3a, (+)-20,22-dihydro-14,21-epoxystrebloside]', '< 4.70');

Turning now to a further compound:
## Input Look up pIC50 for this compound: CO[C@H]1[C@H](O[C@H]2CC[C@]3(C=O)[C@H]4CC[C@]5(C)[C@](O)(C6=CC(=O)OC6)CC[C@]5(O)[C@@H]4CC[C@]3(O)C2)O[C@H](C)[C@H](O)[C@@H]1OC
## Output < 4.70
